# TARGET_SYSTEM: telomerase (Homo sapiens, UniProt O14746)
# Construct: assayed for telomerase activity using MGC-803 cells extract; endogenous in cells
# Sequence (O14746 whole entry): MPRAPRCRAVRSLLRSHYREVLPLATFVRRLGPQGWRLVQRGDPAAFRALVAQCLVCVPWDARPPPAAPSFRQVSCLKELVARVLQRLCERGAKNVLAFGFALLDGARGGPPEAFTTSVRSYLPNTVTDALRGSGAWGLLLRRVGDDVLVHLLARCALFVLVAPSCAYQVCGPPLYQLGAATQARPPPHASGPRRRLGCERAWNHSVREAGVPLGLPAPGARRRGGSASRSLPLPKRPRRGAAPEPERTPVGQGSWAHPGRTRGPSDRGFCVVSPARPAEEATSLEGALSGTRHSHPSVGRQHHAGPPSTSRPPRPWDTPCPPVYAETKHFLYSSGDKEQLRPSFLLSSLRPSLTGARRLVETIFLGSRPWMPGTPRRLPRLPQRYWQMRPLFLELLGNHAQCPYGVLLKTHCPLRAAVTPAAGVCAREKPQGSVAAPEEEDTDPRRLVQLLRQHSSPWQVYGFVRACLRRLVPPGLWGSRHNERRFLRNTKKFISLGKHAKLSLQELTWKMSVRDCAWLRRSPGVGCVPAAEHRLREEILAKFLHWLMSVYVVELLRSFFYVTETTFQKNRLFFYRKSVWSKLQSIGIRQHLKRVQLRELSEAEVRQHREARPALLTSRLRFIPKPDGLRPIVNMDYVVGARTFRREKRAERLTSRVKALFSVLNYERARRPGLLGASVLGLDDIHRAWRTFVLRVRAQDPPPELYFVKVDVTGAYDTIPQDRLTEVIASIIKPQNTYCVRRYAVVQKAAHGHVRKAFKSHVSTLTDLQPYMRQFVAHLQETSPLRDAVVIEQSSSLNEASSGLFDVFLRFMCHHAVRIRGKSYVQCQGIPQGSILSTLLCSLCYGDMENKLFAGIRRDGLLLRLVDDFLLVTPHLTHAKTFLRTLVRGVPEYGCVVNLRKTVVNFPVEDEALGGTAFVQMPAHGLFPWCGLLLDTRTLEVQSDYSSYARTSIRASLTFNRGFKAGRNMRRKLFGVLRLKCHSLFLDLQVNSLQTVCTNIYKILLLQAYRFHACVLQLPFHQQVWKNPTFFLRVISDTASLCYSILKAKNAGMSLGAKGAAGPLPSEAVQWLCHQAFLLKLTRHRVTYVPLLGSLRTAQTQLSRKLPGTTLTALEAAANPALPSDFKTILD
# Sequence (O60832 2-514 partner limits assumed): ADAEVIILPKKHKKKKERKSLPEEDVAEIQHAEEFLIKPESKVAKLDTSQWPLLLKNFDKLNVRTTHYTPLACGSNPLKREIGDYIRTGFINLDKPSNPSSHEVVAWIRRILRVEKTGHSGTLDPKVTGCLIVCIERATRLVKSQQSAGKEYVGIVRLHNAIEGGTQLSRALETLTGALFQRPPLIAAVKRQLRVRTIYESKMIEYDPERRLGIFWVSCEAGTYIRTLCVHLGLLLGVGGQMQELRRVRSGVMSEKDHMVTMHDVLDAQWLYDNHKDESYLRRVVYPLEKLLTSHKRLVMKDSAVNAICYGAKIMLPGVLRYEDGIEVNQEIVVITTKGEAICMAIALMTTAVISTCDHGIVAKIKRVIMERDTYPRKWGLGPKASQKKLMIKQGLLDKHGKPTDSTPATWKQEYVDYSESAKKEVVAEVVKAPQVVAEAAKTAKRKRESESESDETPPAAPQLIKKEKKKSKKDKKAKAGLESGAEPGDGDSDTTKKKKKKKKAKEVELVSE
# Sequence (Q9NPE3 whole entry partner): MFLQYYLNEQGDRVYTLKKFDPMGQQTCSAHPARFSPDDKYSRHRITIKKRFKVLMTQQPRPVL
# Sequence (Q9NX24 whole entry partner): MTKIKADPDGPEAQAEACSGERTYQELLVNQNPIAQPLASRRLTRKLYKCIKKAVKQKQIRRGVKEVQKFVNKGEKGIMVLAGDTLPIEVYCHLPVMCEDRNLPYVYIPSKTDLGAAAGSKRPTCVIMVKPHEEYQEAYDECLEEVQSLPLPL
# Sequence (Q9NY12 whole entry partner): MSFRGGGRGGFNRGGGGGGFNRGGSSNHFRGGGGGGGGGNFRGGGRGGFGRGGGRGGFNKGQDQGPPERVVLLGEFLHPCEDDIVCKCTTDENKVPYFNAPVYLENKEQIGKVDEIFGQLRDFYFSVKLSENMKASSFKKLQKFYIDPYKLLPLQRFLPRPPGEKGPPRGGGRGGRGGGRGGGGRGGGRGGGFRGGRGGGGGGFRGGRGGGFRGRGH
# EXPERIMENTAL_PROTOCOL: Telomerase activity assay using MGC-803 cells extract
# TEST_SETTINGS: mean ± SD
pIC50: −log10 of the molar value.
PROPERTY: pIC50

Worked cases, pIC50 given:
COc1cc(OC)c2c(=O)c(OCC(=O)Nc3nnc(-c4cccc5ccccc45)o3)c(-c3ccc(OC)c(OC)c3)oc2c1: 5.92
COc1cc(OC)c2c(=O)c(OCC(=O)Nc3nnc(-c4ccc(F)c(Cl)c4)o3)c(-c3ccc(OC)c(OC)c3)oc2c1: 5.38
COc1cc(OC)c2c(=O)c(OCC(=O)Nc3nnc(/C=C/c4ccccc4)o3)c(-c3ccc(OC)c(OC)c3)oc2c1: 6.01
COc1cc(OC)c2c(=O)c(OCC(=O)Nc3nnc(-c4cccc(F)c4)o3)c(-c3ccc(OC)c(OC)c3)oc2c1: 5.37
COc1cc(OC)c2c(=O)c(OCC(=O)Nc3nnc(-c4ccc(OC)c(OC)c4)o3)c(-c3ccc(OC)c(OC)c3)oc2c1: 6.29

[I] COc1cc(OC)c2c(=O)c(OCC(=O)Nc3nnc(-c4ccc(OC)c(OC)c4)o3)c(-c3cc(OC)c(OC)c(OC)c3)oc2c1
[II] COc1cc(OC)c2c(=O)c(OCC(=O)Nc3nnc(-c4cccc5ccccc45)o3)c(-c3cc(OC)c(OC)c(OC)c3)oc2c1
[III] COc1cc(OC)c2c(=O)c(OCC(=O)Nc3nnc(-c4cccc(OC(F)(F)F)c4)o3)c(-c3ccc(OC)c(OC)c3)oc2c1
[IV] COc1cccc(-c2nnc(NC(=O)COc3c(-c4cc(OC)c(OC)c(OC)c4)oc4cc(OC)cc(OC)c4c3=O)o2)c1
Provide the items ranked by increasing pIC50. Record the ranking as a list of labels in the requested order.
III, II, IV, I

---

PROPERTY: melting point

COc1cc(OC)c2c(=O)c(OCC(=O)Nc3nnc(-c4cccc(Br)c4)o3)c(-c3ccc(OC)c(OC)c3)oc2c1: 204 to 206 °C
COc1cc(OC)c2c(=O)c(OCC(=O)Nc3nnc(-c4ccccc4OC(F)(F)F)o3)c(-c3cc(OC)c(OC)c(OC)c3)oc2c1: 202 to 204 °C
COc1cc(OC)c2c(=O)c(OCC(=O)Nc3nnc(-c4ccccc4Br)o3)c(-c3ccc(OC)c(OC)c3)oc2c1: 226 to 228 °C
COc1cc(OC)c2c(=O)c(OCC(=O)Nc3nnc(-c4ccccc4Cl)o3)c(-c3cc(OC)c(OC)c(OC)c3)oc2c1: 201 to 203 °C
COc1cc(OC)c2c(=O)c(OCC(=O)Nc3nnc(-c4ccc(C)cc4)o3)c(-c3ccc(OC)c(OC)c3)oc2c1: 239 to 241 °C

Form field melting point, entry COc1cc(OC)c2c(=O)c(OCC(=O)Nc3nnc(-c4ccccc4)o3)c(-c3cc(OC)c(OC)c(OC)c3)oc2c1 : 222 to 224 °C

Recorded result, COc1cc(OC)c2c(=O)c(OCC(=O)Nc3nnc(-c4cccc(OCc5ccccc5)c4)o3)c(-c3ccc(OC)c(OC)c3)oc2c1 , melting point: 156 to 158 °C

Note to self: melting point recorded for COc1cc(OC)c2c(=O)c(OCC(=O)Nc3nnc(-c4ccccc4OC(F)(F)F)o3)c(-c3ccc(OC)c(OC)c3)oc2c1 was 226 to 228 °C

For COc1cc(OC)c2c(=O)c(OCC(=O)Nc3nnc(-c4ccc(OC)c(OC)c4)o3)c(-c3ccc(OC)c(OC)c3)oc2c1 the molecule record lists melting point as 151 to 153 °C

Query COc1cc(OC)c2c(=O)c(OCC(=O)Nc3nnc(-c4cccc(OC(F)(F)F)c4)o3)c(-c3ccc(OC)c(OC)c3)oc2c1 yields melting point of 207 to 209 °C

Recorded melting point (molecule COc1cc(OC)c2c(=O)c(OCC(=O)Nc3nnc(-c4cccc(OCc5ccccc5)c4)o3)c(-c3cc(OC)c(OC)c(OC)c3)oc2c1 ): 188 to 190 °C

Lab note: measured melting point of COc1cc(OC)c2c(=O)c(OCC(=O)Nc3nnc(-c4ccc(F)cc4)o3)c(-c3cc(OC)c(OC)c(OC)c3)oc2c1 was 221 to 223 °C

// melting point value for COc1cc(OC)c2c(=O)c(OCC(=O)Nc3nnc(-c4ccc(Br)cc4)o3)c(-c3cc(OC)c(OC)c(OC)c3)oc2c1 : 234 to 236 °C

What the record says about COc1cc(OC)c2c(=O)c(OCC(=O)Nc3nnc(-c4ccc(C(F)(F)F)cc4)o3)c(-c3cc(OC)c(OC)c(OC)c3)oc2c1 : melting point is 231 to 233 °C

---

melting point reference

Some solved entries appear below for comparison.
COc1cc(OC)c2c(=O)c(OCC(=O)Nc3nnc(-c4ccccc4C(F)(F)F)o3)c(-c3ccc(OC)c(OC)c3)oc2c1: 225 to 227 °C
COc1ccc(-c2nnc(NC(=O)COc3c(-c4cc(OC)c(OC)c(OC)c4)oc4cc(OC)cc(OC)c4c3=O)o2)cc1: 239 to 241 °C
COc1cc(OC)c2c(=O)c(OCC(=O)Nc3nnc(-c4ccco4)o3)c(-c3ccc(OC)c(OC)c3)oc2c1: 233 to 235 °C
COc1cc(OC)c2c(=O)c(OCC(=O)Nc3nnc(/C=C/c4ccccc4)o3)c(-c3ccc(OC)c(OC)c3)oc2c1: 226 to 228 °C
COc1cc(OC)c2c(=O)c(OCC(=O)Nc3nnc(-c4cccc5ccccc45)o3)c(-c3cc(OC)c(OC)c(OC)c3)oc2c1: 238 to 240 °C

melting point recorded for this compound, COc1cc(OC)c2c(=O)c(OCC(=O)Nc3nnc(-c4ccc(F)c(Cl)c4)o3)c(-c3ccc(OC)c(OC)c3)oc2c1 , is 232 to 234 °C

Query COc1cc(OC)cc(-c2nnc(NC(=O)COc3c(-c4cc(OC)c(OC)c(OC)c4)oc4cc(OC)cc(OC)c4c3=O)o2)c1 yields melting point of 198 to 200 °C

---

# System: SMMC-7721 (human hepatoma cell)
# EXPERIMENTAL_PROTOCOL: In vitro anticancer (antiproliferative) MTT assay, SMMC-7721
# Format: cell-based
# TEST_SETTINGS: mean ± SD of three experiments in triplicate
pIC50: −log10 of the molar value.
PROPERTY: pIC50

Per the record, C/C(=C\C(=O)Nc1ccccc1C(=O)O)c1ccc2ccccc2c1 [BIBR1532, reference compound] has pIC50 of < 4.00

---

PROPERTY: melting point

The cases that follow already have their melting point on record.
COc1cc(OC)c2c(=O)c(OCC(=O)Nc3nnc(-c4cccc(OC(F)(F)F)c4)o3)c(-c3cc(OC)c(OC)c(OC)c3)oc2c1: 221 to 223 °C
COc1cc(OC)c2c(=O)c(OCC(=O)Nc3nnc(-c4ccccc4C)o3)c(-c3cc(OC)c(OC)c(OC)c3)oc2c1: 205 to 207 °C
COc1cc(OC)c2c(=O)c(OCC(=O)Nc3nnc(-c4ccc(Br)cc4)o3)c(-c3ccc(OC)c(OC)c3)oc2c1: 212 to 214 °C

Now for another entry.
# melting point of COc1cc(OC)cc(-c2nnc(NC(=O)COc3c(-c4ccc(OC)c(OC)c4)oc4cc(OC)cc(OC)c4c3=O)o2)c1 = 200 to 202 °C

---

PROPERTY: melting point

Completed entries (count: 3):
COc1cc(OC)c2c(=O)c(OCC(=O)Nc3nnc(-c4cccs4)o3)c(-c3cc(OC)c(OC)c(OC)c3)oc2c1: 224 to 226 °C
COc1cc(OC)c2c(=O)c(OCC(=O)Nc3nnc(-c4cccc(C(F)(F)F)c4)o3)c(-c3cc(OC)c(OC)c(OC)c3)oc2c1: 220 to 222 °C
COc1cc(OC)c2c(=O)c(OCC(=O)Nc3nnc(-c4ccc5c(c4)OCCO5)o3)c(-c3ccc(OC)c(OC)c3)oc2c1: 228 to 230 °C

# input for lookup
For this compound ( COc1cc(OC)c2c(=O)c(OCC(=O)Nc3nnc(-c4ccccc4Br)o3)c(-c3cc(OC)c(OC)c(OC)c3)oc2c1 ), measured melting point is 199 to 201 °C

---

PROPERTY: melting point

Field: example entries. Status: answers known.
COc1cc(OC)c2c(=O)c(OCC(=O)Nc3nnc(-c4ccccc4F)o3)c(-c3ccc(OC)c(OC)c3)oc2c1: 235 to 237 °C
COc1cc(OC)c2c(=O)c(OCC(=O)Nc3nnc(-c4ccc(F)c(Cl)c4)o3)c(-c3cc(OC)c(OC)c(OC)c3)oc2c1: 228 to 230 °C
COc1cc(OC)c2c(=O)c(OCC(=O)Nc3nnc(-c4ccc5c(c4)OCCO5)o3)c(-c3cc(OC)c(OC)c(OC)c3)oc2c1: 231 to 233 °C
COc1cc(OC)c2c(=O)c(OCC(=O)Nc3nnc(-c4ccccc4)o3)c(-c3ccc(OC)c(OC)c3)oc2c1: 237 to 239 °C
COc1cc(OC)c2c(=O)c(OCC(=O)Nc3nnc(-c4cccc(F)c4)o3)c(-c3ccc(OC)c(OC)c3)oc2c1: 229 to 231 °C

Reported melting point of COc1cc(OC)c2c(=O)c(OCC(=O)Nc3nnc(-c4ccc(Cl)cc4)o3)c(-c3cc(OC)c(OC)c(OC)c3)oc2c1 : 227 to 229 °C

melting point measured on COc1cc(OC)c2c(=O)c(OCC(=O)Nc3nnc(-c4ccc(OC(F)(F)F)cc4)o3)c(-c3cc(OC)c(OC)c(OC)c3)oc2c1 = 230 to 232 °C
